Entry source: PubChem BioAssay AID709

- METHOD_SUMMARY: intrinsic fluorescence of library compounds, ex339/em460 – biochemical, MLSMR library, data from DPM-DC assay, artefact control, profiling panel (AID 709);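 note: signal is the first read of a kinetic run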
- SETTINGS: compound autofluorescence, ex339/em460 nm, NADH buffer; at 10 µM; 1 = no-compound wells, NADH background
The campaign covered roughly 65,000 compounds. About 3,600 (5.5%) were called active.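 Rule for the calls: active = at 10 µM, mean starting fluorescence two-fold or more over control wells; inactive = the rest.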 The sample holds actives, similar compounds and a random draw of the others, so the mix is not that of the screen.
Pick from T (active), F (inactive) when you respond.

# outcome recorded in this test, key = CC12CN3CC(C)(CN(C1)C3c1ccc(Cl)cc1Cl)C2=O (stereo unspecified)
F
